# System: CAKI-1 renal
# test method notes: NCI tumour cell line growth inhibition, 48 h
result type: TGI (nM)

compound: C=C1CC(COc2cc(=O)oc3ccccc23)(c2ccccc2)OC1=O (stereo not given)
modifier sign: =
value observed: 2670
//
compound: CC(=O)Nc1ccccc1Sc1ccccc1
modifier sign: >
value observed: 100000
//
compound: CN1CCN(Cc2ccc(NC(=O)c3cncc(C#Cc4cnc(N)c5ccc(C#N)cc45)c3)cc2C(F)(F)F)CC1
modifier sign: =
value observed: 206
//
compound: CC1(Cl)C(=O)NC(=O)N(C2CC(N=[N+]=[N-])C(CO)O2)C1N=[N+]=[N-] (stereo not given)
modifier sign: >
value observed: 100000
//
compound: Nc1ccc2nc(-c3ccccn3)c(-c3ccccn3)nc2c1
modifier sign: >
value observed: 100000

---

# Test system: MDA-MB-231 breast
# test method notes: NCI tumour cell line growth inhibition, 48 h
Quick reference: TGI of the listed items.

compound: CCCCCCCCCCCCCCCCCCNc1ccn(C2OC(COP(=O)(O)OCC3OC(n4ccc(NC(=O)CCCCCCCCCCCCCCCCC)nc4=O)C(OC(C)=O)C3OC(C)=O)C(OC(C)=O)C2OC(C)=O)c(=O)n1 (stereo not given)
target of assay: MDA-MB-231 breast
TGI: > 100 µM

compound: CC[CH2][Pb]([CH2]CC)([CH2]CC)[O]C(=O)C(F)(F)F
target of assay: MDA-MB-231 breast
TGI: 0.44 µM

compound: O=C(O)c1cc2c(cc1CC(Cc1ccc3c(c1)CCC3)C(=O)O)CCC2 (stereo not given)
target of assay: MDA-MB-231 breast
TGI: > 100 µM

compound: O=C(c1ccco1)c1nc2ccc(C(F)(F)F)cc2[n+]([O-])c1C(F)(F)F
target of assay: MDA-MB-231 breast
TGI: > 100 µM

compound: CCN1c2ccccc2-n2c(C)nnc2-c2c1n[nH]c2-c1ccccc1
target of assay: MDA-MB-231 breast
TGI: 71.1 µM

compound: CCOC(=O)CNC(=O)C(CSCc1ccc(Br)cc1)NC(=O)CCC(N)C(=O)OCC (stereo not given)
target of assay: MDA-MB-231 breast
TGI: > 50 µM

compound: COc1ccc(-n2c(=O)c3[nH]cnc3n(-c3ccc(OC)cc3)c2=S)cc1
target of assay: MDA-MB-231 breast
TGI: > 100 µM

compound: O=C1c2c(c3c4ccccc4n(CCCCCCBr)c3c3[nH]c4ccccc4c23)C(=O)N1O
target of assay: MDA-MB-231 breast
TGI: 9.52 µM

compound: Cc1cc(N(CCOS(C)(=O)=O)CCOS(C)(=O)=O)ccc1C=Nc1ccc(-c2nc(Cc3ccccc3)sc2C)cc1
target of assay: MDA-MB-231 breast
TGI: 26.9 µM

compound: NC(C(F)(F)F)(C(F)(F)F)P(=O)(Cc1ccccc1)Cc1ccccc1
target of assay: MDA-MB-231 breast
TGI: > 100 µM

compound: O=C1NNC=Nc2ccc(cc2)S(=O)(=O)c2ccc(cc2)N=CNNC1=O
target of assay: MDA-MB-231 breast
TGI: > 100 µM

compound: CCCc1cc(=O)c2c(C)c3[nH]c4ccc(Cl)cc4c3c(C)c2[nH]1
target of assay: MDA-MB-231 breast
TGI: 3.97 µM

compound: COc1cccc(-c2cc(=O)c3ccccc3o2)c1N
target of assay: MDA-MB-231 breast
TGI: > 100 µM

compound: CCOc1cccc(/C=N/NC(=O)c2ccccc2Nc2ccnc(C(F)(F)F)c2)c1O
target of assay: MDA-MB-231 breast
TGI: > 100 µM

compound: COCOC1/C=C/CCCCC2=C(C)C=C(C1)O2 (stereo not given)
target of assay: MDA-MB-231 breast
TGI: > 100 µM

Values from PubChem BioAssay (NCI)
